Target: T1, human FcRn/b2M (human, UniProt P61769 21-119, biotinylated)
T1 construct: bought recombinant biotinylated protein (ACRO FCM-H82W4 or Immunitrack ITF01); also called hFcRn; hFcRn/hb2M
Experiment: SPR pH 7.4;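 further: surface plasmon resonance kinetics, periplasmic extracts diluted 1:10 flowed over immobilized target at 25 °C, 120 s association then 600–3600 s dissociation, buffer with 150 mM NaCl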
Quantity measured: koff (s⁻¹)

Solved entries:
* T0263018B11 T96S (VHH, name in Kabat numbering, FLAG3-His6 tagged) VHH: EVQLVESGGGVVQPGGSLRLSCAASGFTFSSYAMYWVRQAPGKGLEWVSAISSGGGSTDYADSVKGRFTISRDNSKNTLYLQMNSLRPEDTALYYCAADSLYTSLTWYSYWGQGTLVTVSS | 0.053
* T0263018B11 T96F (VHH, name in Kabat numbering, FLAG3-His6 tagged) VHH: EVQLVESGGGVVQPGGSLRLSCAASGFTFSSYAMYWVRQAPGKGLEWVSAISSGGGSTDYADSVKGRFTISRDNSKNTLYLQMNSLRPEDTALYYCAADFLYTSLTWYSYWGQGTLVTVSS | 0.16
* T0263018B11 A94S (VHH, name in Kabat numbering, FLAG3-His6 tagged) VHH: EVQLVESGGGVVQPGGSLRLSCAASGFTFSSYAMYWVRQAPGKGLEWVSAISSGGGSTDYADSVKGRFTISRDNSKNTLYLQMNSLRPEDTALYYCASDTLYTSLTWYSYWGQGTLVTVSS | 0.046
* T0263018B11 A33T (VHH, name in Kabat numbering, FLAG3-His6 tagged) VHH: EVQLVESGGGVVQPGGSLRLSCAASGFTFSSYTMYWVRQAPGKGLEWVSAISSGGGSTDYADSVKGRFTISRDNSKNTLYLQMNSLRPEDTALYYCAADTLYTSLTWYSYWGQGTLVTVSS | 0.0038
* T0263018B11 T57F (VHH, name in Kabat numbering, FLAG3-His6 tagged) VHH: EVQLVESGGGVVQPGGSLRLSCAASGFTFSSYAMYWVRQAPGKGLEWVSAISSGGGSFDYADSVKGRFTISRDNSKNTLYLQMNSLRPEDTALYYCAADTLYTSLTWYSYWGQGTLVTVSS | 0.033
* T0263018B11 S56A (VHH, name in Kabat numbering, FLAG3-His6 tagged) VHH: EVQLVESGGGVVQPGGSLRLSCAASGFTFSSYAMYWVRQAPGKGLEWVSAISSGGGATDYADSVKGRFTISRDNSKNTLYLQMNSLRPEDTALYYCAADTLYTSLTWYSYWGQGTLVTVSS | 0.051

[A] T0263018B11 S52E (VHH, name in Kabat numbering, FLAG3-His6 tagged) VHH: EVQLVESGGGVVQPGGSLRLSCAASGFTFSSYAMYWVRQAPGKGLEWVSAIESGGGSTDYADSVKGRFTISRDNSKNTLYLQMNSLRPEDTALYYCAADTLYTSLTWYSYWGQGTLVTVSS
[B] T0263018B11 S56L (VHH, name in Kabat numbering, FLAG3-His6 tagged) VHH: EVQLVESGGGVVQPGGSLRLSCAASGFTFSSYAMYWVRQAPGKGLEWVSAISSGGGLTDYADSVKGRFTISRDNSKNTLYLQMNSLRPEDTALYYCAADTLYTSLTWYSYWGQGTLVTVSS
Sorting by koff in descending order, would A or B appear first? Give the chosen item's label as your response. A
